tested on: ATP; assay: switch fluorescence ratio, 500 uM ATP over buffer (Cy3 cluster intensity, sum of 5 cycles each) (fold (ratio)); higher = stronger signal-on switching upon ATP binding; sequences stand for … in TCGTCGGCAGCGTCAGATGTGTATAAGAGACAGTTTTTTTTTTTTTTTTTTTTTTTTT…TC; conditions: aptamer strand: ATP DNA aptamer (quencher-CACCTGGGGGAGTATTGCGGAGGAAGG + anchor), 100 nM annealed; ATP concentration: 500 uM;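 also: ATP exposure 15 min at 22 °C before imaging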
readout-type: switch fluorescence ratio
Just the number, please, no unit after it.

// worked examples, switch fluorescence ratio included
{"columns": ["item-sequence", "switch fluorescence ratio"],
 "data": [
  ["TCCGCACAGA", 3.41],
  ["TTGTAAATGA", 1.02],
  ["TCTTAGGTTG", 1.03]
]}

Value of measured switch fluorescence ratio for the entry "GGGATGGTAG" : 1.01

Value of measured switch fluorescence ratio for the entry "AAAATGGGTT" : 1

====

test system: ATP; assay: switch fluorescence ratio, 500 uM ATP over buffer (Cy3 cluster intensity, sum of 5 cycles each) (fold (ratio)); higher = stronger signal-on switching upon ATP binding; sequences stand for … in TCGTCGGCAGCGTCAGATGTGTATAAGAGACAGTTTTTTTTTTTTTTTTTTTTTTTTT…TC; details: aptamer strand: ATP DNA aptamer (quencher-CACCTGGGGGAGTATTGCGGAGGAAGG + anchor), 100 nM annealed; ATP concentration: 500 uM;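 also: ATP exposure 15 min at 22 °C before imaging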
readout-type: switch fluorescence ratio
Just the number, please, no unit after it.

{"columns": ["item-sequence", "system", "switch fluorescence ratio"],
 "data": [
  ["ACGGCATTTC", "ATP", 1.28],
  ["CAGGGACGGT", "ATP", 0.975],
  ["AAATGTTCTG", "ATP", 0.948],
  ["GAACATCGGC", "ATP", 1.04],
  ["GGGAATGGAA", "ATP", 0.995],
  ["GTTTTGGTTT", "ATP", 0.986]
]}

Value of measured switch fluorescence ratio for the entry "GCCAATTACG" : 1.11

Value of measured switch fluorescence ratio for the entry "TGGGTTGTGT" : 0.988

====

tested on: ATP; assay: switch fluorescence ratio, 500 uM ATP over buffer (Cy3 cluster intensity, sum of 5 cycles each) (fold (ratio)); higher = stronger signal-on switching upon ATP binding; sequences stand for … in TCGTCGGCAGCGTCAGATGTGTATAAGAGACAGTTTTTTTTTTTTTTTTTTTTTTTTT…TC; conditions: aptamer strand: ATP DNA aptamer (quencher-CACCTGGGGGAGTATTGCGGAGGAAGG + anchor), 100 nM annealed; ATP concentration: 500 uM;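 also: ATP exposure 15 min at 22 °C before imaging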
readout-type: switch fluorescence ratio
Just the number, please, no unit after it.

{"columns": ["item-sequence", "system", "switch fluorescence ratio"],
 "data": [
  ["AATAGAAAAT", "ATP", 0.97],
  ["ACTTTAGCGG", "ATP", 0.99],
  ["GCCGGCTGTG", "ATP", 0.99],
  ["TCGGGGCCAT", "ATP", 1.02]
]}

Value of measured switch fluorescence ratio for the entry "ACATAATGTG" : 1.06

Value of measured switch fluorescence ratio for the entry "TTTAGGCCTC" : 1.01

Value of measured switch fluorescence ratio for the entry "TTCTTTACGG" : 0.986

Value of measured switch fluorescence ratio for the entry "AGTATATCTT" : 0.98

Value of measured switch fluorescence ratio for the entry "TAGAGAATGG" : 0.994

Value of measured switch fluorescence ratio for the entry "TCTGGATATT" : 1.01

Value of measured switch fluorescence ratio for the entry "TAGGCCTAAT" : 0.972

Value of measured switch fluorescence ratio for the entry "AGATTTAGTA" : 0.982

Value of measured switch fluorescence ratio for the entry "GCTAACGGAG" : 1.01

Value of measured switch fluorescence ratio for the entry "TAAAAGGGTA" : 1

Value of measured switch fluorescence ratio for the entry "GACAGGTGAG" : 1.15

Value of measured switch fluorescence ratio for the entry "GATTTTTGCC" : 1.01

Value of measured switch fluorescence ratio for the entry "GGGCGCCAAA" : 1

Value of measured switch fluorescence ratio for the entry "TTTTCTGCCT" : 1.07

Value of measured switch fluorescence ratio for the entry "ACAAAAGGGG" : 1.16

Value of measured switch fluorescence ratio for the entry "AATAGGGTG" : 1.08

Value of measured switch fluorescence ratio for the entry "ATATTGGGTA" : 0.997

Value of measured switch fluorescence ratio for the entry "GGCGAAAGAG" : 1.02

Value of measured switch fluorescence ratio for the entry "GGGGAGGGTC" : 1.02

Value of measured switch fluorescence ratio for the entry "TAGGAAAAAA" : 1.03

Value of measured switch fluorescence ratio for the entry "TTCGTCATGG" : 1.03

Value of measured switch fluorescence ratio for the entry "ATAAACCTTA" : 1.29

Value of measured switch fluorescence ratio for the entry "GCAGGCCACA" : 1.11

Value of measured switch fluorescence ratio for the entry "ATAGACGTTA" : 1.07

====

Measured switch fluorescence ratio accompanies every entry in the list below.
tested on: ATP; assay: switch fluorescence ratio, 500 uM ATP over buffer (Cy3 cluster intensity, sum of 5 cycles each) (fold (ratio)); higher = stronger signal-on switching upon ATP binding; sequences stand for … in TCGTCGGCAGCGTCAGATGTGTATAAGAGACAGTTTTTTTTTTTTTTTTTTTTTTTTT…TC; conditions: aptamer strand: ATP DNA aptamer (quencher-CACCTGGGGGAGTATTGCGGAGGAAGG + anchor), 100 nM annealed; ATP concentration: 500 uM;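 also: ATP exposure 15 min at 22 °C before imaging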

// worked examples, switch fluorescence ratio included
{"columns": ["item-sequence", "value-reported"],
 "data": [
  ["TTGAGTTAC", 1.03],
  ["CGGGTATTAA", 0.994]
]}

Value of measured switch fluorescence ratio for the entry "GAACCGTAAA" : 1.13

Value of measured switch fluorescence ratio for the entry "TGACATTCGA" : 1.03

====

tested on: ATP; assay: switch fluorescence ratio, 500 uM ATP over buffer (Cy3 cluster intensity, sum of 5 cycles each) (fold (ratio)); higher = stronger signal-on switching upon ATP binding; sequences stand for … in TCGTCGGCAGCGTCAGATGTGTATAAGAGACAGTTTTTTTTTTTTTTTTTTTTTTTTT…TC; conditions: aptamer strand: ATP DNA aptamer (quencher-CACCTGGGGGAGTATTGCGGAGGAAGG + anchor), 100 nM annealed; ATP concentration: 500 uM;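 also: ATP exposure 15 min at 22 °C before imaging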
readout-type: switch fluorescence ratio
Just the number, please, no unit after it.

Value of measured switch fluorescence ratio for the entry "CAATGTGGGG" : 0.989

Value of measured switch fluorescence ratio for the entry "TATTAATCGG" : 0.97

====

system: ATP; assay: switch fluorescence ratio, 500 uM ATP over buffer (Cy3 cluster intensity, sum of 5 cycles each) (fold (ratio)); higher = stronger signal-on switching upon ATP binding; sequences stand for … in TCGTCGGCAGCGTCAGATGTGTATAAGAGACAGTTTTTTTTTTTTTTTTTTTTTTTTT…TC; settings: aptamer strand: ATP DNA aptamer (quencher-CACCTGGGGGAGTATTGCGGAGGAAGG + anchor), 100 nM annealed; ATP concentration: 500 uM;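 also: ATP exposure 15 min at 22 °C before imaging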
Note to self: values exactly at 1 are 1 (yes). So switch fluorescence ratio at or above 1 is 1 (yes), below is 0 (no).

Would you please look over these solved cases?
{"columns": ["item-sequence", "system", "category-label"],
 "data": [
  ["AGTTTCGGGT", "ATP", "0 (no)"],
  ["AGTACCGTTT", "ATP", "0 (no)"],
  ["GGCGCAATTG", "ATP", "1 (yes)"],
  ["GGCAGCCGGG", "ATP", "0 (no)"],
  ["AATTTATGC", "ATP", "0 (no)"]
]}

input: Reported switch fluorescence ratio at or above 1? "ATTTCCTGTG"
output: 1 (yes)

====

system: ATP; assay: switch fluorescence ratio, 500 uM ATP over buffer (Cy3 cluster intensity, sum of 5 cycles each) (fold (ratio)); higher = stronger signal-on switching upon ATP binding; sequences stand for … in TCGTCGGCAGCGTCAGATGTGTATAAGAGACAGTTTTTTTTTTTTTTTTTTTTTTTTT…TC; details: aptamer strand: ATP DNA aptamer (quencher-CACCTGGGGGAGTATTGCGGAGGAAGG + anchor), 100 nM annealed; ATP concentration: 500 uM;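 also: ATP exposure 15 min at 22 °C before imaging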
readout-type: switch fluorescence ratio

{"columns": ["item-sequence", "readout-type", "value-reported"],
 "data": [
  ["GAGTAGTGCT", "switch fluorescence ratio", 1.03],
  ["AACTAGGGCT", "switch fluorescence ratio", 0.976],
  ["AAACTTGTAC", "switch fluorescence ratio", 1.1],
  ["GTTTGGGTAA", "switch fluorescence ratio", 0.99],
  ["AGTGGGGTAC", "switch fluorescence ratio", 1.03],
  ["GAGCGTGGGA", "switch fluorescence ratio", 1.11]
]}

Next, consider the following sequence.
Value of measured switch fluorescence ratio for the entry "CCTTTGGCAG" : 1.22
